Values from patent US20120029038A1

System: ticks (Haemaphysalis longicornis)
EXPERIMENTAL_PROTOCOL: Pesticidal activity on ticks in filter paper test
Type: in vivo
RECORDED_CONDITIONS: 48 h, 100 mg/m^2, non-blood-fed young ticks, 2 days later
Method: Each (5 mg) of the present hydrazide compounds (1), (3) to (5), (8), (10) and (13) was dissolved in acetone (10 mL), and this acetone solution (1 mL) was uniformly applied onto one side of a filter paper (TOYO No. 2; 5×10 cm; the surface area of the filter paper was 50 cm^2, and thus the amount of the present hydrazide compound applied was 100 mg/m^2). […] Two (2) days later, the number of dead ticks was examined and the mortality was calculated by the following formula: […]
Exercise: for every item that follows, state its recorded mortality at 100 mg/m2.

{"columns": ["MOLECULE", "READING"],
 "data": [
  ["O=C(CCCC(F)(F)F)NNc1cc(C2=NOC(c3cc(Cl)cc(Cl)c3)(C(F)(F)F)C2)ccc1Cl (stereo not shown)", "≥ 90%"],
  ["CCc1ccc(C2=NOC(c3cc(Cl)cc(Cl)c3)(C(F)(F)F)C2)cc1NNC(=O)CC(F)(F)F (stereo not shown)", "≥ 90%"],
  ["O=C(CC(F)(F)F)NNc1cc(C2=NOC(c3cc(Cl)cc(Cl)c3)(C(F)(F)F)C2)ccc1F (stereo not shown)", "≥ 90%"]
]}

Now take the following molecule into account.
Find the recorded mortality at 100 mg/m2 belonging to O=C(CC(F)(F)F)NNc1cccc(C2=NOC(c3cc(Cl)cc(Cl)c3)(C(F)(F)F)C2)c1 (stereo not shown) and report it.
≥ 90%
